Provenance of the data: PubChem BioAssay AID1963964

- Tested on: 997726-040-R-J2-PDC tumor spheroids, viability;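 also: spheroids exposed to compounds for seven days before readout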
- ASSAY_PROTOCOL: Anticancer human tumor 997726-040-R-J2-PDC patient-derived squamous cell lung carcinoma cell line growth inhibition [PI3K]; active = viability on the fitted dose curve at most 10% of control; inactive = the rest
- REPORTED_CONDITIONS: second compound 10 µM; first compound 10 µM; spheroids with HUVEC and MSC
Valid outcomes are listed here; reply with one: active, inactive

Observe how each entry below is paired with its result.
Cn1nccc1Nc1nccc(-c2ccn(C(CO)c3ccc(Cl)c(F)c3)c(=O)c2)n1 (stereo not given) + Cc1nc(NC(=O)N2CCCC2C(N)=O)sc1-c1ccnc(C(C)(C)C(F)(F)F)c1: inactive
C=CC(=O)N1CCN(c2nc(=O)n(-c3c(C)ccnc3C(C)C)c3nc(-c4c(O)cccc4F)c(F)cc23)C(C)C1 (stereo not given) + Cc1nc(NC(=O)N2CCCC2C(N)=O)sc1-c1ccnc(C(C)(C)C(F)(F)F)c1: inactive
CC1(C)CCC(Nc2ncc(C(F)(F)F)c(-c3c[nH]c4c(P(C)(C)=O)c(C#N)ccc34)n2)CN1 (stereo not given) + Cc1nc(NC(=O)N2CCCC2C(N)=O)sc1-c1ccnc(C(C)(C)C(F)(F)F)c1: active
Cn1ncc(Cl)c1-c1cc(C(=O)NC(CN)Cc2cccc(F)c2)sc1Cl (stereo not given) + Cc1nc(NC(=O)N2CCCC2C(N)=O)sc1-c1ccnc(C(C)(C)C(F)(F)F)c1: active

Outcome logged for CC1(C)CCC(CN2CCN(c3ccc(C(=O)NS(=O)(=O)c4ccc(NCC5CCOCC5)c([N+](=O)[O-])c4)c(Oc4cnc5[nH]ccc5c4)c3)CC2)=C(c2ccc(Cl)cc2)C1 + CC(Nc1ncnc2nc[nH]c12)c1cc2cccc(Cl)c2c(=O)n1-c1ccccc1 in this assay: inactive
